Tested on: LOC_OS03G04050-cb001
Experiment: thermal shift delta Tm vs DMSO control; higher = stronger stabilization (binding);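 further: purified Escherichia coli-expressed rice kinase domain construct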
Conditions: 12.5 µM; protein concentration 2 µM
Record Fulfilled whenever thermal shift delta Tm is at 0.4 °C or higher; record Not fulfilled when lower.

* CCCCCCCCCCCCCCCCCCOP(=O)([O-])OC1CC[N+](C)(C)CC1 | Not fulfilled
* CN1c2ccccc2C(=O)Nc2cnc(Nc3ccc(N4CCC(O)CC4)cc3)nc21 | Not fulfilled
* C#Cc1cccc(Nc2ncnc3cc(OCCOC)c(OCCOC)cc23)c1 | Not fulfilled
* COc1cc(Nc2ncc(F)c(Nc3ccc4c(n3)NC(=O)C(C)(C)O4)n2)cc(OC)c1OC | Fulfilled
* COc1ccc(C(=O)Nc2sc3c(c2C(N)=O)CCCC3)cc1OC | Not fulfilled

Q) Check the entry "CC(C)=CC[C@@H](O)C1=CC(=O)c2c(O)ccc(O)c2C1=O" : does thermal shift delta Tm equal or exceed 0.4 °C?
A) Fulfilled

Q) Check the entry "Nc1[nH]nc2nnc(-c3c(-c4ccccc4)nn4ccccc34)cc12" : does thermal shift delta Tm equal or exceed 0.4 °C?
A) Fulfilled

Q) Check the entry "CNC(=O)c1ccccc1Sc1ccc2c(/C=C/c3ccccn3)n[nH]c2c1" : does thermal shift delta Tm equal or exceed 0.4 °C?
A) Not fulfilled

Q) Check the entry c1cc(-c2cnn3cc(-c4ccc(OCCN5CCCCC5)cc4)cnc23)ccn1 [Dorsomorphin 2HCl] : does thermal shift delta Tm equal or exceed 0.4 °C?
A) Fulfilled

====

Test system: LOC_OS03G50810-cb003
Test: thermal shift delta Tm vs DMSO control; higher = stronger stabilization (binding)
Settings: 12.5 µM; protein concentration 2 µM
Counter-ions that a name gives are not always drawn.
property.measured: thermal shift delta Tm (°C)
Answers are plain numbers, in °C.

* O=C1Nc2ccc(I)cc2/C1=C/c1cc(Br)c(O)c(Br)c1 | 4.01
* O=C1NCCc2[nH]c(-c3ccncc3)cc21 | 0.45
* NC1(Cc2ccc(Cl)cc2)CCN(c2ncnc3[nH]ccc23)CC1 | 0.62
* Cc1c(NC(=O)c2ccc(C(C)(C)C)cc2)cccc1-c1cn(C)c(=O)c(Nc2ccc(C(=O)N3CCOCC3)cc2)n1 | 0.7
* Cc1cc2c(F)c(Oc3ncnn4cc(OC[C@@H](C)OC(=O)[C@H](C)N)c(C)c34)ccc2[nH]1 | 0.18

Each molecule below has a reported value. Please supply its thermal shift delta Tm.
1. Nc1ncccc1-c1nc2ccc(-c3ccccc3)nc2n1-c1ccc(C2(N)CCC2)cc1 [Miransertib (ARQ 092) HCl]
2. CCCS(=O)(=O)Nc1ccc(F)c(C(=O)c2c[nH]c3ncc(-c4ccc(Cl)cc4)cc23)c1F [Vemurafenib (PLX4032, RG7204)]
3. O=c1c(O)c(-c2cc(O)c(O)c(O)c2)oc2cc(O)cc(O)c12 [Myricetin]
4. CCCCCCCCCCCCCCCCn1cc[n+](Cc2ccccc2)c1C
5. O=S(=O)(NCCNC/C=C/c1ccc(Br)cc1)c1cccc2cnccc12
6. C[C@@H]1CN(CC(=O)Nc2ccc3c(c2)Cc2cccc(-c4cc(=O)cc(N5CCOCC5)o4)c2S3)C[C@H](C)O1

A)
1: -0.05; 2: 2.6; 3: -0.73; 4: -4.07; 5: 0.01; 6: 0.14

====

Could you please report measured thermal shift delta Tm for the items listed next?
Test system: LOC_OS04G35114-cb001
Assay: thermal shift delta Tm vs DMSO control; higher = stronger stabilization (binding)
Settings: 12.5 µM; protein concentration 2 µM
Numbers only, in °C.

* Cn1cnc2c(F)c(Nc3ccc(Br)cc3F)c(C(=O)NOCCO)cc21 | 0
* CC(C)n1nc(-c2ccc3oc(N)nc3c2)c2c(N)ncnc21 | 5.42
* Clc1ccc(Nc2nnc(Cc3ccncc3)c3ccccc23)cc1 [Vatalanib (PTK787) 2HCl] | 0.3

Each molecule below has a reported value. Please supply its thermal shift delta Tm.
1. COc1cc(Nc2ncc(F)c(Nc3ccc4c(n3)N(COP(=O)(O)O)C(=O)C(C)(C)O4)n2)cc(OC)c1OC [Fostamatinib (R788)]
2. CO[C@@H](C)Cn1c(=O)n(C)c2cnc3ccc(-c4cncc(C(C)(C)O)c4)cc3c21
3. C=CC(=O)Nc1cccc(Nc2nc(Nc3ccc(OCCOC)cc3)ncc2F)c1
4. COc1cc2ncnc(Nc3ccc(F)c(Cl)c3)c2cc1OCCCN1CCOCC1 [Gefitinib (ZD1839)]
5. Nc1nccc(Oc2ccc(NC(=O)c3c[nH]cc(-c4ccc(F)cc4)c3=O)cc2F)c1Cl
6. CN1CCN(c2ccc(C(=O)Nc3n[nH]c4ccc(Cc5cc(F)cc(F)c5)cc34)c(NC3CCOCC3)c2)CC1 [Entrectinib (RXDX-101)]
7. c1cn2cc(-c3ccc4cn[nH]c4c3)nc(Nc3ccc(N4CCOCC4)cc3)c2n1
8. CCOc1cc(C(=O)N2CCC(N3CCN(C)CC3)CC2)ccc1Nc1ncc2c(n1)N(C1CCCC1)c1ccccc1C(=O)N2C

A)
1. 3.46
2. 3.42
3. 3.89
4. 4.83
5. 0.58
6. 7.44
7. 2.13
8. 0.47

====

Test system: LOC_OS02G08530-cb003
Test: thermal shift delta Tm vs DMSO control; higher = stronger stabilization (binding)
Details: 12.5 µM; protein concentration 2 µM
Record Y whenever thermal shift delta Tm is at 1 °C or higher; record N when lower.

• CN1CCN(c2ccc(Nc3cc(-c4cccc(-n5ccc6cc(C7CC7)cc(F)c6c5=O)c4CO)cn(C)c3=O)nc2)CC1 = Y

Q) Check the entry "COc1cc2nccc(Oc3ccc(NC(=O)c4cn(C(C)C)c(=O)n(-c5ccc(F)cc5)c4=O)cc3F)c2cc1OC" : does thermal shift delta Tm equal or exceed 1 °C?
A) N

Q) Check the entry "CO[C@@H](C)Cn1c(=O)n(C)c2cnc3ccc(-c4cncc(C(C)(C)O)c4)cc3c21" : does thermal shift delta Tm equal or exceed 1 °C?
A) Y

Q) Check the entry "CCCNC(=O)Nc1ccc(Oc2ncnc3cc(OC)c(OC)cc23)cc1Cl" : does thermal shift delta Tm equal or exceed 1 °C?
A) Y

Q) Check the entry "N#CC(=C(/N)Sc1ccccc1N)/C(C#N)=C(\N)Sc1ccccc1N" : does thermal shift delta Tm equal or exceed 1 °C?
A) Y

Q) Check the entry "C[C@@H](Oc1cc(-n2cnc3ccc(CN4CCN(C)CC4)cc32)sc1C(N)=O)c1ccccc1C(F)(F)F" : does thermal shift delta Tm equal or exceed 1 °C?
A) Y

Q) Check the entry "COC(=O)Nc1ccc(-c2nc(N3CCOCC3)c3cnn(C4CCN(C(=O)OC)CC4)c3n2)cc1" : does thermal shift delta Tm equal or exceed 1 °C?
A) N

Q) Check the entry "C#Cc1cccc(Nc2ncnc3cc(OC)c(OCCCCCCC(=O)NO)cc23)c1" : does thermal shift delta Tm equal or exceed 1 °C?
A) N

====

Tested on: LOC_OS02G54510-cb004
Test: thermal shift delta Tm vs DMSO control; higher = stronger stabilization (binding)
Details: 12.5 µM; protein concentration 2 µM
property.measured: thermal shift delta Tm (°C)
Give bare numbers, in °C.

Sample answers from the record:
• CCn1c(-c2nonc2N)nc2c(C#CC(C)(C)O)ncc(OC[C@H]3CCCNC3)c21 = -0.17
• Cn1cc(-c2ccc3nnc(Sc4ccc5ncccc5c4)n3n2)cn1 = 0.23
• N#Cc1c(O)c2c(-c3ccc(-c4ccccc4O)cc3)csc2[nH]c1=O = 0.51
• Cc1cc(Nc2nc(N[C@@H](C)c3ccc(F)cc3)c(C#N)cc2F)n[nH]1 = 2.52
• C#Cc1cccc(Nc2ncnc3cc(OC)c(OCCCCCCC(=O)NO)cc23)c1 = 1.18

Each molecule below has a reported value. Please supply its thermal shift delta Tm.
1. O=C(Nc1c[nH]nc1-c1nc2ccc(CN3CCOCC3)cc2[nH]1)NC1CC1
2. COc1cc(OC)cc(N(CCNC(C)C)c2ccc3ncc(-c4cnn(C)c4)nc3c2)c1
3. CCCCCCCCCCCCc1ccc(S(=O)(=O)Nc2nncs2)cc1
4. C=CC(=O)Nc1cccc(Nc2nc(Nc3ccc(Oc4ccnc(C(=O)NC)c4)cc3)ncc2F)c1

A)
2.96
2.46
-0.17
1.23

Each molecule below has a reported value. Please supply its thermal shift delta Tm.
1. O=C(O)c1cc(O)c2c(c1)[C@@H]([C@H]1c3cc(C(=O)O)cc(O)c3C(=O)c3c(O[C@@H]4O[C@H](CO)[C@@H](O)[C@H](O)[C@H]4O)cccc31)c1cccc(O[C@@H]3O[C@H](CO)[C@@H](O)[C@H](O)[C@H]3O)c1C2=O [Sennoside B]
2. Cc1cc(F)c(Nc2ncnc3cc(OCc4ccccc4)ccc23)cc1O
3. COc1cc2nccc(Oc3ccc(NC(=O)C4(C(=O)Nc5ccc(F)cc5)CC4)cc3)c2cc1OC

A)
[-0.47, 0.36, 1.19]

Each molecule below has a reported value. Please supply its thermal shift delta Tm.
1. Cc1nc(N)sc1-c1ccnc(Nc2ccc(N3CCOCC3)cc2)n1
2. CS(=O)(=O)N1CCN(Cc2cc3nc(-c4cccc5[nH]ncc45)nc(N4CCOCC4)c3s2)CC1 [Pictilisib (GDC-0941)]
3. Cc1cc(O)c2c(c1)C(=O)c1cccc(O)c1C2=O [Chrysophanic Acid]
4. COc1ccc(-c2nc(N3CCOCC3)c3sc(CN(C)c4ncc(C(=O)NO)cn4)cc3n2)cn1
5. CCCCNc1ncc2c(-c3ccc(CN4CCN(C)CC4)cc3)cn([C@H]3CC[C@H](O)CC3)c2n1
6. Nc1nccc(Oc2ccc3c(C(=O)Nc4cccc(C(F)(F)F)c4)cccc3c2)n1

A)
1. 1.11
2. 0.25
3. -1.28
4. 0.27
5. 0.6
6. 0.78

Origin of values: the supplement of paper PMC9694430
